For each of the compounds below, state its normalized growth.
- method_description: chemical genetic growth profiling, strain panel (AID 1159580);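 also: tested at 20 µM; growth read once vehicle control cultures reached saturation at 30 °C; 1 = growth at the plate median or of vehicle wells; lower values mean less growth of the strain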
- test_settings: S. cerevisiae deletion strains, growth OD, locus YPL204W, strain HRR25, active compounds read low
Hit rate of the full screen: of about 5,500 compounds, about 2,000 (36%) were called active. Inconclusive results (about 18%) are left out. This is one part of the list.
Numbers only.

Respond only with normalized growth recorded for COc1ccc(CC2CCC(=NOC(=O)c3ccc(C(C)(C)C)cc3)CC2)cc1 (stereo not given)
0.916

Batch request: normalized growth for each of the following compounds.
1. S=C(Nc1cc(Cl)c(Cl)cc1Cl)Nc1ccccc1Br
2. COc1cc(CC/C(C)=N\O)ccc1OCc1ccc(Cl)c(Cl)c1
3. COc1ccc(CC2CCC(=NOC(=O)c3c(Cl)cccc3Cl)CC2)cc1 (stereo not given)
4. CS(=O)(=O)/C(C#N)=C/c1ccccc1OCc1c(Cl)cccc1Cl
5. Cc1nn(Cc2nnc(SCc3cccc(C(F)(F)F)c3)o2)c(C)c1Br
6. COc1ccc(C(=O)NCc2csc3ccc(Cl)cc23)cc1OC
7. O=C(Nc1ccc(F)c(Cl)c1)c1ccccc1O
8. CC1C/C(=N/Nc2ccc(Br)cc2)c2cc(Cl)ccc2S1(=O)=O (stereo not given)

0.848
0.873
0.929
0.897
0.932
0.974
0.797
0.855

Batch request: normalized growth for each of the following compounds.
1. O=C(CCn1c(=O)oc2ccccc21)Sc1ccc(Cl)cc1Cl
2. CS(=O)(=O)c1sc(C(=O)Sc2ccc(Cl)cc2)c2c1C=CCC2
3. Cc1c(S(=O)(=O)c2ccc(Cl)cc2)csc1C(=O)NNc1cccc(Cl)c1

[0.402, 0.286, 0.897]

// data source = PubChem BioAssay AID1159580
